Assay: Metabolic stability in microsomal assay (t1/2)
Type: in vitro ADME
Conditions: microsomes, metabolic stability in microsomal assay; read-out: t1/2 in microsomal assay

Compound: Nc1nc(N)c2c(-c3ccccc3)c(-c3ccc(F)cc3)[nH]c2n1 [35b]
half-life: > 8 h

----------
System: T. b. brucei
Assay: microbe, parasite or virus in culture
Assay type: cell-based, T. b. brucei (strain Lister 427)
Details: read-out: T. b. brucei (IC50 μM) HMI-9; HMI-9 medium

Molecule: Nc1nc2[nH]c(-c3ccc(F)cc3)c(-c3ccccc3)c2c(=O)[nH]1 [34c]
Tested System: T. b. brucei
IC50 [µM]: 0.738
--
Molecule: Nc1nc(N)c2c(-c3ccccc3)c(-c3ccc(F)cc3)[nH]c2n1 [35b]
Tested System: T. b. brucei
IC50 [µM]: 0.321
--
Molecule: Nc1nc(N)c2c(-c3ccccc3)c(-c3ccccc3)[nH]c2n1 [35a]
Tested System: T. b. brucei
IC50 [µM]: 2.25

----------
Experiment: Plasma binding (fraction unbound)
Format: in vitro ADME
Settings: mouse; fraction unbound by plasma; read-out: plasma bind fu

Compound: Nc1nc2[nH]c(-c3ccc(F)cc3)c(-c3ccccc3)c2c(=O)[nH]1 [34c]
fraction unbound: 0.017

Compound: Nc1nc(N)c2c(-c3ccccc3)c(-c3ccc(F)cc3)[nH]c2n1 [35b]
fraction unbound: 0.011

Compound: Nc1nc2[nH]c(-c3ccccc3)c(-c3ccccc3)c2c(=O)[nH]1 [34a]
fraction unbound: 0.029

Compound: Nc1nc(N)c2c(-c3ccccc3)c(-c3ccccc3)[nH]c2n1 [35a]
fraction unbound: 0.035

----------
Test system: T. b. brucei
Assay: microbe, parasite or virus in culture
Type: cell-based, T. b. brucei (strain Lister 427)
Conditions: Trypanosoma brucei, read-out: T. b. brucei (IC50 μM) CMM, Creek's minimal medium (CMM)
Mark yes (1) only when IC50 stays strictly below 0.6 µM. Values equal to the cut-off are no (0).

Compound: Nc1nc2[nH]c(-c3ccccc3)c(-c3ccccc3)c2c(=O)[nH]1 [34a]
Tested System: T. b. brucei
Label: yes (1)
--
Compound: CN(Cc1cnc2nc(N)nc(N)c2n1)c1ccc(C(=O)N[C@@H](CCC(=O)O)C(=O)O)cc1 [methotrexate, reference compound]
Tested System: T. b. brucei
Label: yes (1)
--
Compound: Nc1nc(N)c2c(-c3ccccc3)c(-c3ccccc3)[nH]c2n1 [35a]
Tested System: T. b. brucei
Label: yes (1)
--
Compound: CC(C)Oc1nc(N)nc(N)c1C(C[N+](=O)[O-])c1ccc(F)cc1 (stereo not shown) [30c]
Tested System: T. b. brucei
Label: no (0)
--
Compound: Nc1nc(N)c2c(-c3ccccc3)c(-c3ccc(F)cc3)[nH]c2n1 [35b]
Tested System: T. b. brucei
Label: yes (1)
--
Compound: N=C(N)c1ccc(/N=N/Nc2ccc(C(=N)N)cc2)cc1 [diminazene, reference compound]
Tested System: T. b. brucei
Label: yes (1)
--
Compound: Nc1nc(N)c(C(C[N+](=O)[O-])c2ccc(F)cc2)c(NC2CCCCC2)n1 (stereo not shown) [30b]
Tested System: T. b. brucei
Label: no (0)
--
Compound: CC(C)COc1nc(N)nc(N)c1C(C[N+](=O)[O-])c1ccc(F)cc1 (stereo not shown) [30a]
Tested System: T. b. brucei
Label: no (0)
--
Compound: Nc1nc2[nH]c(-c3ccc(CCCN4CCOCC4)cc3)c(-c3ccccc3)c2c(=O)[nH]1
Tested System: T. b. brucei
Label: no (0)

----------
Listed next: entries and their corresponding Cli.
Test: Clearance (Cli)
Type: in vitro ADME
Settings: footnote: Cli is the clearance in vivo

Compound: Nc1nc2[nH]c(-c3ccc(F)cc3)c(-c3cccc(Cl)c3)c2c(=O)[nH]1 [34l]
Unit Text: mL/min/g
Relation Symbol: <
Cli: 0.5

Compound: Nc1nc(N)c2c(-c3ccccc3)c(-c3ccc(F)cc3)[nH]c2n1 [35b]
Unit Text: mL/min/g
Relation Symbol: =
Cli: 1.90

Compound: Nc1nc(N)c2c(-c3ccccc3)c(-c3ccccc3)[nH]c2n1 [35a]
Unit Text: mL/min/g
Relation Symbol: =
Cli: 5.26

Compound: Nc1nc2[nH]c(-c3ccccc3)c(CCc3ccccc3)c2c(=O)[nH]1 [34i]
Unit Text: mL/min/g
Relation Symbol: =
Cli: 2.5

Compound: Nc1nc(N2CCCC2)c2c(C#Cc3ccccc3)c[nH]c2n1
Unit Text: mL/min/g
Relation Symbol: =
Cli: 5.6

Compound: Nc1nc(N)c2c(-c3ccc(F)cc3)c[nH]c2n1 [29b]
Unit Text: mL/min/g
Relation Symbol: =
Cli: 1.7

Compound: Nc1nc2[nH]c(-c3ccc(F)cc3)c(-c3ccccc3)c2c(=O)[nH]1 [34c]
Unit Text: mL/min/g
Relation Symbol: =
Cli: 0.17

----------
Test system: T. b. brucei
Assay: microbe, parasite or virus in culture
Format: cell-based, T. b. brucei (strain Lister 427)
Settings: Trypanosoma brucei, read-out: T. b. brucei (IC50 μM), medium not stated
Property: log10 IC50 (log10 of the value in µM)

Compound: Nc1nc(N)c(C(C[N+](=O)[O-])c2ccccc2)c(=O)[nH]1 (stereo not drawn) [26c]
Tested System: T. b. brucei
log10 IC50: 0.01

Compound: Nc1nc(N)c(C(C[N+](=O)[O-])c2ccc(F)cc2)c(N)n1 (stereo not drawn) [28b]
Tested System: T. b. brucei
log10 IC50: -0.80

Compound: Nc1nc(N)c(C(C[N+](=O)[O-])c2ccc(F)cc2)c(=O)[nH]1 (stereo not drawn) [26b]
Tested System: T. b. brucei
log10 IC50: 0.27

Compound: Cc1ccc(C(C[N+](=O)[O-])c2c(N)nc(N)nc2N)cc1 (stereo not drawn) [28a]
Tested System: T. b. brucei
log10 IC50: -0.33

Compound: N#Cc1c[nH]c2nc(N)nc(N3CCSCC3)c12 [12d]
Tested System: T. b. brucei
log10 IC50: 1.16

Compound: N#Cc1c(-c2cccc(C=O)c2)[nH]c2nc(N)nc(N)c12
Tested System: T. b. brucei
log10 IC50: 0.78

Compound: Nc1nc(N)c(C(CCc2ccccc2)C[N+](=O)[O-])c(N)n1 (stereo not drawn) [28d]
Tested System: T. b. brucei
log10 IC50: 0.95

Compound: Nc1nc(N)c(C(C[N+](=O)[O-])c2ccccc2)c(N)n1 (stereo not drawn) [28c]
Tested System: T. b. brucei
log10 IC50: -0.89

Compound: Nc1nc(N2CCSCC2)c2cc[nH]c2n1
Tested System: T. b. brucei
log10 IC50: 1.90

Compound: Cc1ccc(C(C[N+](=O)[O-])c2c(N)nc(N)[nH]c2=O)cc1 (stereo not drawn) [26a]
Tested System: T. b. brucei
log10 IC50: 0.31

Compound: N#Cc1c[nH]c2nc(N)nc(N)c12
Tested System: T. b. brucei
log10 IC50: 3.39

Compound: Nc1nc2[nH]cc(CCc3ccccc3)c2c(=O)[nH]1 [27d]
Tested System: T. b. brucei
log10 IC50: 3.88
